Where these numbers come from: PubChem BioAssay

Known composite z-score of a selection of compounds
Test: COS7 lysate on small-molecule microarray, probe aHis, 635 nm (AID 1123);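 also: z-score combines 667nm fluorescence intensity with signal-to-noise per printed compound spot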
Condition label: COS7 cell lysate, fluorescence, higher = more signal
Reported property: composite z-score

>>> assay_value("COCCOC(=O)N1C(=O)[C@@]2(c3cc(C#CCNC(N)=O)ccc31)[C@H](C(=O)N1CCCCCCC1)[C@H]1C(=O)O[C@H](c3ccccc3)[C@H](c3ccccc3)N1[C@@H]2c1ccc(O)cc1")
0.654
>>> assay_value("COc1ccc([Si](C)(C)[C@H]2[C@H](CCO)O[C@@]3(C(=O)N(Cc4cccc(N5CCCCC5=O)c4)c4ccccc43)[C@@H]2C)cc1")
1.31
>>> assay_value("C=C(CCCC)/C(=C/C[C@@H](OC(=O)c1ccncc1)c1cccc(OCCO)c1)c1cnc2ccccc2c1")
1.04
>>> assay_value("CCOC(=O)C1=CC[C@@H](c2ccc([N+](=O)[O-])cc2)N(S(=O)(=O)c2ccc(C)cc2)[C@H]1c1ccccc1")
2.21
>>> assay_value("CN1C2C=C(CCCO)C(C3C(=O)N(C(N)=O)C(=O)C32)C1c1cccs1 (configuration not stated)")
0.924
>>> assay_value("C=CCOC(=O)[C@H]1[C@@H]2C(=O)O[C@@H](c3ccccc3)[C@@H](c3ccccc3)N2[C@@H](c2ccc(OCCOC(=O)[C@H]3C[C@H]4C(=O)N[C@@H](Cc5ccccc5)C(=O)N4[C@H]3c3ccc(O)cc3)cc2)[C@]12C(=O)Nc1ccc(I)cc12")
1.78
>>> assay_value("CN(C)CCCCNC(=O)[C@H]1C[C@H]2C(=O)N[C@@H](CCCCN(C)C)C(=O)N2[C@H]1c1cccc(OCCO)c1")
2.21
>>> assay_value("COc1ccc([Si](C)(C)[C@@H]2[C@@H](CCO)O[C@]3(C(=O)N(Cc4cccc(N5C(=O)c6cccc7cccc5c67)c4)c4ccccc43)[C@H]2C)cc1")
1.17
>>> assay_value("CO[C@H]1O[C@H](CO)[C@@H](OC(=O)Nc2ccc(C(F)(F)F)cc2)[C@H](OC(=O)Nc2ccc3c(c2)OCO3)[C@H]1OC(=O)Nc1ccc2c(c1)OCO2")
2.67
>>> assay_value("CN(C)C(=O)[C@@]1(Cc2ccccc2N=[N+]=[N-])COC(c2ccc(OCCCO)cc2)=N1")
1.89
>>> assay_value("CC(=O)NCCCC[C@@H]1NC(=O)[C@@H]2C[C@H](C(=O)O)[C@H](c3ccc(O)cc3)N2C1=O")
-0.0142
>>> assay_value("C=CCC(OC(C)=O)[C@@H]1[C@@H](N(Cc2cc3ccccc3o2)C(=O)c2ccc(C)cc2)c2cc(OCCCO)ccc2N1C(=O)Cc1ccc2ccccc2c1 (some centres not stated)")
0.0465
>>> assay_value("C=CCNC(=O)[C@@H]1[C@H]2C(=O)O[C@H](c3ccccc3)[C@H](c3ccccc3)N2[C@H](c2ccc(OCCO)cc2)[C@@]12C(=O)N(C(=O)OCCOC)c1ccc(C#CC3=CCCCC3)cc12")
0.634
>>> assay_value("CCOc1cc(C(O)C2C=CC3C(=O)N(C)C(=O)C3N2N2CCCCC2)ccc1O (configuration not stated)")
0.733
>>> assay_value("COCC(=C=CC[C@H](O)c1ccc(OCCO)cc1)C[C@H](O)COCc1ccccc1")
1.07
>>> assay_value("O=C(NC1CC1)[C@@H]1c2ccccc2C(=O)N(Cc2ccccc2)[C@H]1c1ccc(CO)cc1")
2.72
>>> assay_value("COCCCNC(=O)[C@]1(Cc2ccccc2N=[N+]=[N-])N=C(c2ccc(OCCCO)cc2)O[C@@H]1c1ccccc1N=[N+]=[N-]")
2.33
>>> assay_value("COC1(C)CN(Cc2ccccc2Br)[C@H](/C=C/c2ccccc2)[C@H](Cc2ccccc2)O1 (some centres not stated)")
0.203
>>> assay_value("CC(C)(C)OC(=O)CC[C@]1(C(=O)NCCN2CCOCC2)N=C(c2ccc(OCCCO)cc2)O[C@H]1c1ccccc1N=[N+]=[N-]")
3.05
>>> assay_value("CC(C)CN1C(=O)[C@@]2(Cc3ccccc31)c1ccccc1C(=O)N(Cc1ccccc1C(F)(F)F)[C@H]2c1ccc(CO)cc1")
-0.562
>>> assay_value("Cc1ccc(S[C@]2(C(=O)O)CC(=O)N(Cc3ccccc3Cl)[C@@H]2c2ccc(CO)cc2)cc1")
1.72
>>> assay_value("COc1ccc(C(O)C2C=CC3C(=O)N(C)C(=O)C3N2N2CCCCC2)cc1 (configuration not stated)")
2.14
>>> assay_value("COCCOC(=O)N1C(=O)[C@@]2(c3ccccc31)[C@H](C(=O)N1CCN(c3ncccn3)CC1)[C@H]1C(=O)O[C@H](c3ccccc3)[C@H](c3ccccc3)N1[C@@H]2c1ccc(OCCO)cc1")
1.36
>>> assay_value("O=C1O[C@@H](c2ccccc2)[C@@H](c2ccccc2)N2[C@@H](c3ccccc3OCCO)[C@]3(C(=O)Nc4ccccc43)[C@@H](C(=O)NC[C@H](O)c3ccccc3)[C@H]12")
1.32
>>> assay_value("COc1ccc([Si](C)(C)[C@H]2[C@H](CCn3cc([C@H](O)c4ccccc4)nn3)O[C@@]3(C(=O)N(Cc4ccc(N5CCC5=O)cc4)c4ccccc43)[C@@H]2C)cc1")
0.418
>>> assay_value("CCOC(=O)C[C@H]1[C@H](OC(=O)c2ccc(-c3ccccc3)cc2)[C@@H](NC(=O)c2ccc3ccccc3n2)c2cc(OCCCO)ccc2N1C(=O)c1ccccc1")
0.554
>>> assay_value("Cc1c(NC(=O)/C(C#N)=C/C=C/c2ccc(N(C)C)cc2)c(=O)n(-c2ccccc2)n1C")
2.54
